A collection of compounds and their measured inhibition
molecular target: Solute carrier family 2, facilitated glucose transporter member 1 (Homo sapiens) (UniProt P11166); experiment: ST_JUDE_LEISH: Cytotoxicity at 2uM final concentration against transgenic Leishmania Mexicana promastigotes LmGLUT1 that are glucose transport deficient and complemented with the human glucose transporter GLUT1. Activity is measured by DNA content using SYBR green in vitro; type: functional
Sequence (P11166 whole entry): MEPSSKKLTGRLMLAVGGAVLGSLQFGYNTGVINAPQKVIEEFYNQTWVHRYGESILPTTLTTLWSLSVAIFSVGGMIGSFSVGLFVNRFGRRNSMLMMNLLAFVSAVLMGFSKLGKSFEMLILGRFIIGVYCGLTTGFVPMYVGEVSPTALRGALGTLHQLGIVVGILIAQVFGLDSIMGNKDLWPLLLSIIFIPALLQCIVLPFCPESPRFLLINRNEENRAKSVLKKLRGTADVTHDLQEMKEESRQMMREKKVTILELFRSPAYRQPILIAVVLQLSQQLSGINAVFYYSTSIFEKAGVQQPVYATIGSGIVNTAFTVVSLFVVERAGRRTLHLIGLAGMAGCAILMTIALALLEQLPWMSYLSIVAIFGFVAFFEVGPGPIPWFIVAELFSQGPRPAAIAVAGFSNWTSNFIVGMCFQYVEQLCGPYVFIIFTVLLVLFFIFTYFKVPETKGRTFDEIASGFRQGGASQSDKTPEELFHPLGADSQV

# compound, inhibition, %
data = [
    ("Cc1cccc2nc(-c3cccc(-c4cccc(NC(=O)CC5NC(=O)c6ccccc65)c4)c3)[nH]c12 (stereo not given)", 0.82),
    ("CCCN(CCCCCCNCCc1ccc(Cl)cc1)CCc1ccc(O)c(O)c1", -4.9),
    ("CCOC(=O)c1ccc(Nc2cc(Nc3ccc(C(=O)OCC)cc3)nc(C)n2)cc1", 7.7),
    ("N#Cc1cccc(Nc2nccc(Nc3ccc(Oc4ccccc4)cc3)n2)c1", 6.87),
    ("O=S(=O)(NCCN1CCCC1)c1cccc(-c2ccc(CNCc3ccc(F)cc3)cc2)c1", 7.08),
]
